Provenance of the data: paper PMC5054527

Target: hURAT1-S35N/F365Y double point mutant (Homo sapiens, UniProt Q96S37, F365Y/S35N)
Construct: hURAT1 and rURAT1 are 553 amino acid proteins with 12 transmembrane segments
Assay: URAT1 uric acid transport activity assay
Settings: hURAT1-S35N/F365Y; MES pH 5.5; 100 μM 14C-uric acid
pIC50: −log10 of the molar value.
readout_label: pIC50

> print(dat)
                          query.smiles  readout.label  value.measured
1  O=c1[nH]c(=O)c2[nH]c(=O)[nH]c2[nH]1          pIC50            3.02

---

Biological target: h-V26T hURAT1 point mutant (Homo sapiens, UniProt Q96S37, V26T)
Sequence (Q96S37 1-553 V26T): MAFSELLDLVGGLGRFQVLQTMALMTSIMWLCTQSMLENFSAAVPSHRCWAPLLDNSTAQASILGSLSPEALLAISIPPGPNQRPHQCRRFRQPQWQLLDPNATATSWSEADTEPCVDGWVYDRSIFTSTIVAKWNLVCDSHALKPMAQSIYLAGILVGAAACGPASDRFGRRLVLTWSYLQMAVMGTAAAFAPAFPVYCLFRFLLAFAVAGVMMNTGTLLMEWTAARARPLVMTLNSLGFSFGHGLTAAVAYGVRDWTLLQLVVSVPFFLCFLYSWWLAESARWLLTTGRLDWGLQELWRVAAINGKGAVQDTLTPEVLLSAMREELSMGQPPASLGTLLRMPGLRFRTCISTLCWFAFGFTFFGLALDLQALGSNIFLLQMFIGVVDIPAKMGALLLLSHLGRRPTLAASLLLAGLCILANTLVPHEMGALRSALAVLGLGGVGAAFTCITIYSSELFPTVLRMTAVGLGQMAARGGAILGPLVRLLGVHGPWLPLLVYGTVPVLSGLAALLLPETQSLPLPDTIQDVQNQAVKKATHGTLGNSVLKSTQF
Assay: URAT1 uric acid transport activity assay
Settings: HEPES pH 7.3, 100 μM 14C-uric acid
readout_label: IC50 (µM)

> print(dat)
                                   compound  value.measured
1  O=C1C(CC[S+]([O-])c2ccccc2)C(=O)N(c2ccccc2)N1c1ccccc1 (stereo not shown)              21

---

Target: h-r TM11 URAT1 chimera (Homo sapiens, UniProt Q96S37, I481M/M474V)
Test: URAT1 uric acid transport activity assay
Conditions: h-r TM11; HEPES pH 7.3; 100 μM 14C-uric acid
readout_label: IC50 (µM)

> print(dat)
                                   compound                          target.or.system  readout.label  value.measured
1  O=C1C(CC[S+]([O-])c2ccccc2)C(=O)N(c2ccccc2)N1c1ccccc1 (stereo not shown) [sulfinpyrazone]  h-r TM11 URAT1 chimera (Homo sapiens, UniProt Q96S37, I481M/M474V)           IC50             100

---

Target: r-V474M rURAT1 point mutant (Rattus norvegicus, UniProt Q3ZAV1, V474M)
Construct: expressed in transfected cells; host or cells: HEK-293T
Sequence (Q3ZAV1 whole entry V474M): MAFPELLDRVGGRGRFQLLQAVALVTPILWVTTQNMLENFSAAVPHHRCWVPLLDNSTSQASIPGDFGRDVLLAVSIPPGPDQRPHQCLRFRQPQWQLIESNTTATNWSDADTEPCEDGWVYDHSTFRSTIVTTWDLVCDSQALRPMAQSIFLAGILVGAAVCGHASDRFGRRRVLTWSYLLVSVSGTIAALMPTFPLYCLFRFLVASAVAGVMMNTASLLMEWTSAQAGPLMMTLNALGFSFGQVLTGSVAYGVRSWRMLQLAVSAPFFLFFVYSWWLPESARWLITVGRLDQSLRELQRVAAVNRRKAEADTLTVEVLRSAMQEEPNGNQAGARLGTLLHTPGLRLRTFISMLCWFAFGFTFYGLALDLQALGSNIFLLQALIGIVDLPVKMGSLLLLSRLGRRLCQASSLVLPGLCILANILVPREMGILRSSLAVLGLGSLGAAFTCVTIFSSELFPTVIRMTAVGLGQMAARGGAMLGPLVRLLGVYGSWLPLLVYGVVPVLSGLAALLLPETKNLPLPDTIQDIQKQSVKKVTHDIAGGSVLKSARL
Assay: URAT1 uric acid transport activity assay
Assay type: cell-based
Details: r-V474M; HEPES pH 7.3; 100 μM 14C-uric acid; read-out: IC50 (uric acid transport)
pIC50: −log10 of the molar value.
readout_label: pIC50

> print(dat)
                                   compound                          target.or.system  value.measured
1  O=C1C(CC[S+]([O-])c2ccccc2)C(=O)N(c2ccccc2)N1c1ccccc1 (stereo not shown)  r-V474M rURAT1 point mutant (Rattus norvegicus, UniProt Q3ZAV1, V474M)            3.14
